Assay: clinical
Conditions: human, plasma, intravenous, Weight-adjusted Vd Median, Dose Level 1, LD 0.25/CD 0.2 μg/kg/hr; full evaluable population
measurementType: Vd (L/kg)
Express it in L/kg; write the number only.

In: Which measured Vd value corresponds to Cc1cccc([C@H](C)c2cnc[nH]2)c1C ?
Out: 2.43

* * *

Test: clinical
Settings: human, plasma, intravenous, AUC0-∞ Median, Dose Level 3, LD 1.00/CD 0.7 μg/kg/hr; full evaluable population
measurementType: AUC(0-inf)
Don't forget the unit after the number, please.

In: Which measured AUC(0-inf) value corresponds to Cc1cccc([C@H](C)c2cnc[nH]2)c1C [dexmedetomidine] ?
Out: 6.08 ng·h/mL
